experimental details: gradient 5% acetonitrile 3 min, to 50% in 2 min, to 85% in 15 min, held 3 min, 100 µL/min
applied conditions: column: Zorbax Extend-C18 2.1 x 50 mm; eluents: water / acetonitrile, 0.1% formic acid
endpoint label: RP-LC retention time (s)

Observe how each entry below is paired with its result.
Return reported RP-LC retention time; argument: `COc1ccc(Cl)cc1N1C=C(C#N)S(=O)(=O)c2ccccc21`
918

One more compound: `Cc1ccc2c(c1)OCC(=O)N2Cc1nc(-c2ccccc2)no1`
1040

One more compound: CCCS(=O)(=O)N1CCCC(Cc2noc(-c3cnccn3)n2)C1 (stereo not drawn)
764

One more compound: `COC(=O)Nc1nc(CC(=O)Nc2ccc(F)c(Cl)c2)cs1`
744

One more compound: `O=C(Cn1ccn2nc(-c3ccccc3)c(CO)c2c1=O)Nc1cccc(Br)c1`
868

One more compound: `Cc1ccc(Nc2nc(C(=O)NC3CCCCC3)nc3ccccc23)cc1`
906

One more compound: `Cc1c(S(=O)(=O)N2CCOCC2)cc(C(=O)N2CCCC2)n1C`
658

One more compound: `CCCn1c(=O)c(C)nc2cc(-c3noc(-c4ccc(C#N)cc4)n3)ccc21`
1080

A: COc1cccc(CNS(=O)(=O)c2ccc(-c3c(C)noc3C)cc2)c1
B: Cn1cccc(C(=O)NCCn2nc(-c3cccs3)ccc2=O)c1=O
Returns: the label, A or B , whose recorded RP-LC retention time is the lower number. Returns: label corresponding to the selected item.
B

A: COc1ccc(-n2nc(C(=O)N3CCN(c4ccccn4)CC3)c3c4ccccc4n(C)c3c2=O)cc1
B: CCOc1ccc(C2Cn3nnc(-c4nc(-c5cccnc5)no4)c3CO2)cc1 (stereo not drawn)
Returns: the label, A or B , whose recorded RP-LC retention time is the lower number. Returns: label corresponding to the selected item.
A
